FYI, the data here is from the supplement of paper PMC10065799.

Tested on: Fer (mouse);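 also: 11-residue human phosphosite peptides and single-mutation variants displayed on the E. coli surface, counted by deep sequencing, each peptide's frequency after selection divided by its frequency in the unselected input library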;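 also: frequency after pTyr selection over input frequency; kinase dosed for 20-30% of maximal phosphorylation in three min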
method.summary: phosphorylation enrichment, bacterial display (enrichment ratio); higher = better substrate or ligand; peptides without Tyr show the background
Entries are grouped by phosphorylation enrichment into these classes: c1 = under 0.4, c2 = from 0.4 up to 0.6, c3 = 0.6 and over

Example entries begin here.
primary.sequence | group.label
FQLPFYNMVPS [BMPR1A_Y458_YF] | c3
SFPHEYGSQEG [RBM10_Y48_R46H_YF] | c2
LIDSSYLTRTA [GREB1L_Y1063] | c3
KDHPDYKFQPR [SOX10_Y171_YF] | c2

Which band does VRTSKYRGGGG [HBA1_Y141_L137R] fall in? c1

Sort VKMLEYLGKDV [CASP5_Y74] into one of the categories. c2

For KICDWYQRQRP [KRT14_Y151_R148C] , which phosphorylation enrichment bin applies? c2

Which class does PRARTYCFKQE [KLHDC9_Y175_S171R_YF] fall in? c1

Lab note: sort LLRLAYLADIF [ZBED5_Y476] into the matching phosphorylation enrichment band. c3
